Activity overview
- Test system: Rattus norvegicus
- Experimental protocol: Analgesic activity in albino rat assessed as increase in tail withdrawal latency at 20 mg/kg, po after 2 hrs relative to control
- Type: functional
Numeric answer plus unit only.

Problem: Need Activity, item Cc1ccc(-c2cnc3nc4sc(C)c(C)c4c(=O)n3n2)cc1
Solution: 25%

Problem: Entry Cc1sc2nc3ncc(-c4ccc(Cl)cc4)nn3c(=O)c2c1C has what Activity?
Solution: 11%

Problem: Request the reported Activity associated with COc1ccc(NC(=O)Cc2nn3c(=O)c4c(C)c(C)sc4nc3[nH]2)cc1
Solution: 35%

Problem: What Activity value was documented for this molecule, Cc1sc2nc3[nH]c(CC(=O)Nc4ccc(Cl)cc4)nn3c(=O)c2c1C ?
Solution: 32%

Problem: Any idea what its Activity is? The molecule is Cc1nn2c(=O)c3c(C)c(C)sc3nc2[nH]1
Solution: 40%

Problem: Endpoint output: Activity of Cc1sc2nc3[nH]c(=S)[nH]n3c(=O)c2c1C . Value?
Solution: 35%

Problem: I'd like to know its Activity. The molecule in question is Cc1sc2nc3[nH]c(CC(=O)Nc4ccccc4)nn3c(=O)c2c1C
Solution: 36%
